Source: paper PMC4036204

Molecular target: T1, Metnase transposase domain WT (UniProt Q53H47 342-684)
T1 sequence: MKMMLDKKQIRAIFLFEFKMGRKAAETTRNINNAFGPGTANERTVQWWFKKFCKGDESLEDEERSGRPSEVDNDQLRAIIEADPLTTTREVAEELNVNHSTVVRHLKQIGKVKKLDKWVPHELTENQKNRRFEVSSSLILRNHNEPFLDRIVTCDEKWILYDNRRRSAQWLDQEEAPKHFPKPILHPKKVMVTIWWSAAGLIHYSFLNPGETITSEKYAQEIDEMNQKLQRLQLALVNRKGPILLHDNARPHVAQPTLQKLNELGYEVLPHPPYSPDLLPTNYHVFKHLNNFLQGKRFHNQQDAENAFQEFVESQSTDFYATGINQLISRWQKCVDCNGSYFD
Test: fluorescence polarization; FP: 50 mM HEPES pH 7.0, 150 mM NaCl, 10 nM probe, temperature not stated; EMSA: 50 mM HEPES-KOH pH 7.8, 50 mM NaCl, 0.2 ug poly(dI:dC), 0.2 ug/ul BSA, room temperature 15 min
Conditions: protein: recombinant; tags: His6-SUMO cleaved by Ulp1; label: 5' rhodamine; single strand
outcome measure: Kd (nM)
The reply should be a number in nM, with the unit left off.

I have this binder here, AACCGCAATTACTTTTGCACCAACC (ssDNA, 5' C6-amino linker) [25-nt TIR ssDNA] , and I need its recorded Kd.
277
